biological target: HLA-C*14:02; experiment: IEDB peptide-MHC binding, purified MHC/competitive/fluorescence; filed as Kd, often an IC50 or EC50 that approximates it; bounds were set here for any values at or beyond the usual limits of such assays; conditions: source organism: Francisella tularensis subsp. tularensis FSC198
Parameter measured: pKd
pKd here: minus log base 10 of the concentration, concentration in moles per litre.

Inquiry: Param item = `YTDKIAMSY` ; retrieve measured pKd.
Reply text: 7.16

----------
target: HLA-A*11:01; test: IEDB peptide-MHC binding, purified MHC/competitive/radioactivity; filed as Kd, often an IC50 or EC50 that approximates it; bounds were set here for any values at or beyond the usual limits of such assays; settings: source organism: Dengue virus 2 Jamaica/1409/1983
Parameter measured: pKd
pKd here: minus log base 10 of the concentration, concentration in moles per litre.

Worked cases, pKd given:
>>> measurement("ALNDTWKMEK")
6.41
>>> measurement("LTTLSRTSKK")
5.73
>>> measurement("IVTCAMFTCK")
6.45

Turning to the following sequence.
Inquiry: Param item = `SILASSLLK` ; retrieve measured pKd.
Reply text: 7.96

----------
target: HLA-B*18:01; experiment: IEDB peptide-MHC binding, purified MHC/competitive/fluorescence; filed as Kd, often an IC50 or EC50 that approximates it; bounds were set here for any values at or beyond the usual limits of such assays; conditions: source organism: Bacillus anthracis str. 'Ames Ancestor'
pKd: −log10 of the molar value.
Parameter measured: pKd

Inquiry: Param item = `MTQNISNDK` ; retrieve measured pKd.
Reply text: ≤ 4.70

----------
target: HLA-B*15:03; experiment: IEDB peptide-MHC binding, purified MHC/competitive/radioactivity; filed as Kd, often an IC50 or EC50 that approximates it; bounds were set here for any values at or beyond the usual limits of such assays; settings: source organism: Vaccinia virus Copenhagen
pKd: −log10 of the molar value.
Label 0.0 if pKd falls below 7; label 1.0 in every other case.

>>> assigned_class("LESQHIISF")
1.0

Inquiry: Is it the case that `WKVLSIMAF` has pKd reaching or exceeding 7?
Reply text: 1.0

Inquiry: Continue with `LLVQRVTSV`
Reply text: 0.0

Inquiry: Continue with `RRLLKFRVE`
Reply text: 0.0

----------
target: HLA-B*48:01; test: IEDB peptide-MHC binding, purified MHC/direct/fluorescence; filed as Kd, often an IC50 or EC50 that approximates it; bounds were set here for any values at or beyond the usual limits of such assays; conditions: source organism: Marburg virus - Musoke, Kenya, 1980
Quick reference for Kd among some sequences

Worked cases, Kd given:
>>> measurement("TVLEFILQK")
"≥ 20 µM"
>>> measurement("IISTNTLGK")
"≥ 20 µM"

Inquiry: Param item = `VPAWLPLGI` ; retrieve measured Kd.
Reply text: ≥ 20 µM

----------
target: HLA-A*03:01; test: IEDB peptide-MHC binding, purified MHC/competitive/radioactivity; filed as Kd, often an IC50 or EC50 that approximates it; bounds were set here for any values at or beyond the usual limits of such assays; conditions: source organism: Mammarenavirus juninense
Parameter measured: Kd (nM)
Unit nM implied. Number only.

Inquiry: Param item = `RNPYENLLYK` ; retrieve measured Kd.
Reply text: 2470

----------
target: HLA-B*08:01; assay: IEDB peptide-MHC binding, purified MHC/competitive/radioactivity; filed as Kd, often an IC50 or EC50 that approximates it; bounds were set here for any values at or beyond the usual limits of such assays; conditions: source organism: Dengue virus 2 Peru/IQT2913/1996
Parameter measured: pKd
pKd here: minus log base 10 of the concentration, concentration in moles per litre.

Inquiry: # returns recorded pKd (system: HLA-B*08:01) for `RKKARNTPF`
Reply text: 7.08
